# Test system: NCI-H520
# experiment: relative viability (nuclei count vs DMSO), 5 days (fraction); higher = more cells survive
# condition: first compound 1.265 µM
Recorded relative viability for the following compounds
# output: bare number, no unit

(Q) Quick check: relative viability of COc1cc(N2CCC(C(N)=O)CC2)ccc1Nc1nc(N)c(Cl)c(Nc2ccccc2S(=O)(=O)C(C)C)n1 [HG-5-88-01] + Nc1ncn([C@H]2C[C@H](O)[C@@H](CO)O2)c(=O)n1 [Decitabine] (partner 2 µM) ?
(A) 0.516

(Q) Quick check: relative viability of COc1cc(N2CCC(C(N)=O)CC2)ccc1Nc1nc(N)c(Cl)c(Nc2ccccc2S(=O)(=O)C(C)C)n1 [HG-5-88-01] + CCNC(=O)c1noc(-c2cc(C(C)C)c(O)cc2O)c1-c1ccc(CN2CCOCC2)cc1 [Luminespib] (partner 0.01 µM) ?
(A) 0.202

(Q) Quick check: relative viability of COc1cc(N2CCC(C(N)=O)CC2)ccc1Nc1nc(N)c(Cl)c(Nc2ccccc2S(=O)(=O)C(C)C)n1 [HG-5-88-01] + CC1(C)CCC(c2ccc(Cl)cc2)=C(CN2CCN(c3ccc(C(=O)NS(=O)(=O)c4ccc(N[C@H](CCN5CCOCC5)CSc5ccccc5)c(S(=O)(=O)C(F)(F)F)c4)cc3)CC2)C1 [Navitoclax] (partner 0.5 µM) ?
(A) 1.17

(Q) Quick check: relative viability of COc1cc(N2CCC(C(N)=O)CC2)ccc1Nc1nc(N)c(Cl)c(Nc2ccccc2S(=O)(=O)C(C)C)n1 [HG-5-88-01] + CC(=O)c1c(C)c2cnc(Nc3ccc(N4CCNCC4)cn3)nc2n(C2CCCC2)c1=O [Palbociclib] (partner 0.5 µM) ?
(A) 0.247
